Kindly state pIC50 for each of the entries shown.
TARGET_OR_TEST_SYSTEM: cAMP-dependent protein kinase catalytic subunit alpha (Homo sapiens, UniProt P17612)
PROTOCOL_SUMMARY: Kinase assays for IC50 determinations
TEST_PARAMETERS: pH 7.5; 30 °C
Here pIC50 is given on a logarithmic scale as minus log10 of the concentration in mol/L.

Please fill in: pIC50 reported for NC1=NC(=O)C(=C2CCNC(=O)c3[nH]ccc32)N1 [B722657K110] = 6.72

response.value for "COc1cc(-c2ccc3c(-c4nc5ccccc5[nH]4)n[nH]c3c2)ccc1O" (field: pIC50) = 3.77

* * *

TARGET_OR_TEST_SYSTEM: Cyclin-A2/Cyclin-dependent kinase 2 (Homo sapiens)
PROTOCOL_SUMMARY: Kinase assays for IC50 determinations
TEST_PARAMETERS: pH 7.5; 30 °C
For each of the compounds below, state its IC50.

The compound listed as "NC1=NC(=O)C(=C2CCNC(=O)c3[nH]ccc32)N1" has a reported IC50 of 856 nM

Value of IC50 reported for the compound "c1ccc2[nH]c(-c3n[nH]c4ccccc34)nc2c1" is 14300 nM

The reported value for "COc1cc(-c2ccc3c(-c4nc5ccccc5[nH]4)n[nH]c3c2)ccc1O" in terms of IC50 is 104 nM
